# Test system: PPARg:RXRa 30nM:10nM, anti-RXR (NR concentration 30 nM, RXRa partner concentration 10 nM)
# RUN_DESCRIPTION: PBM binding z-score (relative to random genomic background probes); higher = stronger binding; sequences stand for … in GC…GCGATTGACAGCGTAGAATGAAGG
Outcome label depends on PBM binding z-score relative to 0.9: at/above gives Met, below gives Not met.

# input Does the reported PBM binding z-score for `CGTCCAAGGTCAAAGGTCAGAGAAGAGATGACGG` fall at or above the 0.9 mark?
# output Met

# input Does the reported PBM binding z-score for `TCTATTAGTTGAAGGGCAACGGACGAGTCCGTTT` fall at or above the 0.9 mark?
# output Met

====

PBM binding z-score: recorded values
# Test system: PPARa:RXRa (NR concentration 270 nM, RXRa partner concentration 90 nM)
# RUN_DESCRIPTION: PBM binding z-score (relative to random genomic background probes); higher = stronger binding; sequences stand for … in GC…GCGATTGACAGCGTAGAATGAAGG
Respond using a number only.

In plain terms, `TATCCAGGGTCAAAGGCCAGAGTACGAATGTCGA` has a documented PBM binding z-score of 6.22

In plain terms, `CCGACTGGGGCAGAAGGTTACCATAAGCCAGCCC` has a documented PBM binding z-score of 1.43

In plain terms, `CGAAGTAGGTCAAGGACAGTGAATCTCCGCACGC` has a documented PBM binding z-score of 5.28

In plain terms, `AGAATGAGGTTATTAAGATCAGGGATTTGCGGTC` has a documented PBM binding z-score of 2.39

In plain terms, `ATATGTAGCTTATCGGGTCATTCAGTTTGCGCAT` has a documented PBM binding z-score of 2.5

In plain terms, `TCTTGGAGATCAAGCAGGTTAAGAAAGCCTGAGT` has a documented PBM binding z-score of 1.09

====

# Test system: LXRa homodimer (NR concentration 270 nM)
# RUN_DESCRIPTION: PBM binding z-score (relative to random genomic background probes); higher = stronger binding; sequences stand for … in GC…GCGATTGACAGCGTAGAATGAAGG
ATTRIBUTE_MEASURED: PBM binding z-score
Respond using a number only.

Known PBM binding z-score results, listed for orientation:
{"columns": ["SEQUENCE_CONTENT", "PBM binding z-score"],
 "data": [
  ["TTACCCAGGTGAGCTGAGGTCGTTGATCCAACTC", -0.313],
  ["ATCTCTAGGTAAGACTCAGTTCAGTGGAGAACGC", 0.914],
  ["CGTCCAAGGTCCGCAGGTCAGTGAAAGCGACGTG", -0.475],
  ["ACTAGTTGGTCAGCTGAGATCACACACAATTCGG", -0.172],
  ["TAGCCTAGGTCATTGGGCCAGTATCGTACGCATC", 0.842],
  ["GCGGACAGGTGAAACGCAGGTAACTCAGGGTGGC", -0.541]
]}

Next, consider the following sequence.
In plain terms, `TCATAGAGGTAAACAGGTGAAAGTCCGTAAGTTA` has a documented PBM binding z-score of -0.178

====

# Tested on: RARb:RXRa (NR concentration 270 nM, RXRa partner concentration 90 nM)
# RUN_DESCRIPTION: PBM binding z-score (relative to random genomic background probes); higher = stronger binding; sequences stand for … in GC…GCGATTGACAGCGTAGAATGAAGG
ATTRIBUTE_MEASURED: PBM binding z-score
Respond using a number only.

{"columns": ["SEQUENCE_CONTENT", "TARGET_SYSTEM", "PBM binding z-score"],
 "data": [
  ["TCTTGTAGATCAAAGGATAAGAAAGCCGAAGCCT", "RARb:RXRa (NR concentration 270 nM, RXRa partner concentration 90 nM)", -0.125]
]}

In plain terms, `CCTACTGGGCCATCAGGTCATTGACATCAACGTT` has a documented PBM binding z-score of 2.09

In plain terms, `ATCGAAAGGTCGTGAGGTGAGTAGACAGAAAGGC` has a documented PBM binding z-score of 3.9

====

# Test system: PXR homodimer (NR concentration 270 nM)
# RUN_DESCRIPTION: PBM binding z-score (relative to random genomic background probes); higher = stronger binding; sequences stand for … in GC…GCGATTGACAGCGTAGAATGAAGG
PBM binding z-score: recorded values
Respond using a number only.

{"columns": ["SEQUENCE_CONTENT", "PBM binding z-score"],
 "data": [
  ["GCTATTAGTTGAAAGGGCAACCCAATGATTCTCG", 0.511],
  ["AATACAGGGTCACAAGGCCAGAGTAGGTACGAAT", 0.719],
  ["GATATAGGGTCAAGGCCAGAGTACGCGTATTGAT", 0.146],
  ["CGAACTAGGTCAAAGGTCAAAGTCGAGCCAACCA", 2.03],
  ["TTACCAAGGCGAGCTGAGGTCGTTGATCCAACTC", 0.0318]
]}

Simply: `AATACAGGGTCCCTAGGCCAGAGTAGGTACGAAT` , PXR homodimer (NR concentration 270 nM), PBM binding z-score = -0.525

Simply: `ATCTCTAGGTAAAAATTCAGTGAATCCCGAGGAT` , PXR homodimer (NR concentration 270 nM), PBM binding z-score = -0.317

Simply: `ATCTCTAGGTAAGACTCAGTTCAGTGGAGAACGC` , PXR homodimer (NR concentration 270 nM), PBM binding z-score = 1.24

====

# Tested on: LXRa homodimer (NR concentration 270 nM)
# RUN_DESCRIPTION: PBM binding z-score (relative to random genomic background probes); higher = stronger binding; sequences stand for … in GC…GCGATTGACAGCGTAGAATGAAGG
PBM binding z-score: recorded values

Known PBM binding z-score results, listed for orientation:
{"columns": ["SEQUENCE_CONTENT", "RESULT_VALUE"],
 "data": [
  ["GCAGACAGGTAAAACGCAGGTAACTCAGGGTGGC", -0.412],
  ["ACTCGGAGGACAAAGGACAGAGCTACGCCAGTGA", -0.502],
  ["CCTCGGAGGACAGAAGGTCAGAGCCGTCCGCTTT", 0.422]
]}

Simply: `TCATAGAGGTAAAAGGTGAAAGTCGGTGTGGTAA` , LXRa homodimer (NR concentration 270 nM), PBM binding z-score = -0.0856

Simply: `ATCTCTAGGTAAAGTTCACTGAAAGATCGATAGA` , LXRa homodimer (NR concentration 270 nM), PBM binding z-score = 3.22

Simply: `TCGAGTAGGTTAGGGGCTTTCAGAATGGCGTCGA` , LXRa homodimer (NR concentration 270 nM), PBM binding z-score = -0.23

Simply: `CCTAGCAGGCCAGGGTCTCTCAAGCATTTCGCTT` , LXRa homodimer (NR concentration 270 nM), PBM binding z-score = -0.767

Simply: `GCTAGCAGGCCATCTGGGTCACTCAATGACGGGC` , LXRa homodimer (NR concentration 270 nM), PBM binding z-score = -0.882

Simply: `TCATATAGGTAAGTGCTAGGTGAAAGTCCGATCT` , LXRa homodimer (NR concentration 270 nM), PBM binding z-score = 0.094

Simply: `TCTATTAGTAGATTAGGGCAACCGAAACAGCGGA` , LXRa homodimer (NR concentration 270 nM), PBM binding z-score = -0.337

Simply: `ATCTCTAGGTAACAAGTTCAGTGATAGAGAGGAC` , LXRa homodimer (NR concentration 270 nM), PBM binding z-score = 0.594

Simply: `GCAGACAGGTGAGACGCAGGTAACTCAGGGTGGC` , LXRa homodimer (NR concentration 270 nM), PBM binding z-score = -0.774

====

# Test system: RARg:RXRa (NR concentration 270 nM, RXRa partner concentration 90 nM)
# RUN_DESCRIPTION: PBM binding z-score (relative to random genomic background probes); higher = stronger binding; sequences stand for … in GC…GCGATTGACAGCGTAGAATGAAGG
PBM binding z-score: recorded values
Respond using a number only.

Known PBM binding z-score results, listed for orientation:
{"columns": ["SEQUENCE_CONTENT", "ATTRIBUTE_MEASURED", "RESULT_VALUE"],
 "data": [
  ["ACTAGTTGGTCCGCTGAGGTCACACACAATTCGG", "PBM binding z-score", 3.69],
  ["CCTGCTAGGTCAATGTTCAGCTAAAGCAGCTCGC", "PBM binding z-score", 3.48],
  ["GCTGCTAGGTTAGGTTGGTCAGCTAACGGGTACG", "PBM binding z-score", 0.0162],
  ["GCGACTGGTGCATCAGCAGGTTACCATAACTTAA", "PBM binding z-score", -0.0711],
  ["TGATATAGGTAAAGGTGAAAGTCGAACGATATGA", "PBM binding z-score", 1.55],
  ["CGAACTACGTCAGAACAGGACAGTGAAGGATGAT", "PBM binding z-score", -0.0189]
]}

In plain terms, `TCTGCTAGGTCAACGATGATCAGCTAATCTGCTA` has a documented PBM binding z-score of 3.81

In plain terms, `ATCGAAAGGGCGAGGTGAGTATAGAGAAAGGGAA` has a documented PBM binding z-score of 1.48

In plain terms, `GCTAGCAGGCCATTTGGGTCACTGAATGACGGGC` has a documented PBM binding z-score of 0.989

In plain terms, `TAAGACAGGTGAAGGTAACTCAGGTACGCAGTCG` has a documented PBM binding z-score of 0.869

In plain terms, `CGAGCTAGGTCAAGGACAGTGAATCTCCGCACGC` has a documented PBM binding z-score of 3.8

In plain terms, `CAAACTAGGTCACCGGAAGTTCAAAGTCCGCATG` has a documented PBM binding z-score of 7

Data provenance: the supplement of paper PMC6555819
